Source of measurements: PubChem BioAssay AID1159580

# assayExplanation: chemical genetic growth profiling, strain panel (AID 1159580);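 note: tested at 20 µM; growth read once vehicle control cultures reached saturation at 30 °C; 1 = growth at the plate median or of vehicle wells; lower values mean less growth of the strain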
# setupConditions: S. cerevisiae deletion strains, growth OD, locus YEL061C, strain CIN8 (second series), stronger effect = lower value
Screen size: about 5,500 compounds; about 2,000 (36%) were called active. Roughly 18% stayed inconclusive and do not appear here. The list shows a part of the results.
endpointLabel: normalized growth

[[record]]
compound = "COc1cc2nc(N(C)CCCNC(=O)C3CCCO3)nc(N)c2cc1OC (stereo not drawn)"
endpointlabel = "normalized growth"
assayvalue = 0.986

[[record]]
compound = "CC[C@@H](C(=O)C(C)[C@@H](O)[C@H](C)CCc1ccc(C)c(O)c1C(=O)O)C1OC(CC)(C2CC[C@](O)(CC)[C@H](C)O2)C[C@@H]1C (stereo partly drawn)"
endpointlabel = "normalized growth"
assayvalue = 1.08

[[record]]
compound = "CO/N=C1/CN(c2nc3c(cc2F)c(=O)c(C(=O)O)cn3C2CC2)CC1CN (stereo not drawn)"
endpointlabel = "normalized growth"
assayvalue = 1.01

[[record]]
compound = "COc1ccc2c(c1)OC/C(=C\\c1ccc(OC)c(O)c1)C2=O"
endpointlabel = "normalized growth"
assayvalue = 0.935

[[record]]
compound = "CCCCCCCCCCC[C@@H](C[C@H]1OC(=O)[C@H]1CCCCCC)OC(=O)[C@@H](CC(C)C)NC=O"
endpointlabel = "normalized growth"
assayvalue = 1.04

[[record]]
compound = "CN(C)CCCC1(c2ccc(F)cc2)OCc2cc(C#N)ccc21 (stereo not drawn)"
endpointlabel = "normalized growth"
assayvalue = 0.986

[[record]]
compound = "CC[C@@H]1C=C/C=C/C[C@H](C)[C@@H](O)[C@](C)(O)C(=O)[C@H](C)[C@@H](O)[C@H](C)C(=O)[C@H](C)[C@@H](O)[C@H](C)/C=C/C(=O)O[C@H]2[C@@H](C)[C@@H](CC1)O[C@@]1(CC[C@@H](C)[C@@H](C[C@H](C)O)O1)[C@@H]2C"
endpointlabel = "normalized growth"
assayvalue = 1.01

[[record]]
compound = "COc1ccc(C(=O)O)cc1OC"
endpointlabel = "normalized growth"
assayvalue = 0.998

[[record]]
compound = "COc1ccc(-c2coc3cc(O)ccc3c2=O)c(OC)c1O"
endpointlabel = "normalized growth"
assayvalue = 0.967

[[record]]
compound = "CCCCCCCCCCCCCc1ccco1"
endpointlabel = "normalized growth"
assayvalue = 0.976

[[record]]
compound = "COc1ccc(-c2coc3cc(O)ccc3c2=O)cc1"
endpointlabel = "normalized growth"
assayvalue = 0.986

[[record]]
compound = "COc1ccc2c(c1)OC/C(=C/c1ccc(OC)c(OC)c1)C2=O"
endpointlabel = "normalized growth"
assayvalue = 0.863

[[record]]
compound = "C#CCCCCCCCCCCCc1ccco1"
endpointlabel = "normalized growth"
assayvalue = 1

[[record]]
compound = "O=C(/C=C/c1ccc(O)c(O)c1)OC(Cc1ccc(O)c(O)c1)C(=O)O (stereo not drawn)"
endpointlabel = "normalized growth"
assayvalue = 1.02

[[record]]
compound = "O=C(O)CCCc1ccc(N(CCCl)CCCl)cc1"
endpointlabel = "normalized growth"
assayvalue = 0.966

[[record]]
compound = "OCCc1ccccc1"
endpointlabel = "normalized growth"
assayvalue = 0.977

[[record]]
compound = "COC(=O)/C=C/C(C)=C/C=C/C(C)=C/C=C/C=C(C)/C=C/C=C(C)/C=C/C(=O)O"
endpointlabel = "normalized growth"
assayvalue = 1.01

[[record]]
compound = "COc1ccc(-c2coc3cc(O)ccc3c2=O)c(OC)c1"
endpointlabel = "normalized growth"
assayvalue = 1

[[record]]
compound = "CCn1cc(C(=O)O)c(=O)c2cc(F)c(N3CCNCC3)nc21"
endpointlabel = "normalized growth"
assayvalue = 0.979

[[record]]
compound = "CN(C)CCN(Cc1cccs1)c1ccccn1"
endpointlabel = "normalized growth"
assayvalue = 1.01

[[record]]
compound = "CC(C)NCC(O)COc1cccc2[nH]ccc12 (stereo not drawn)"
endpointlabel = "normalized growth"
assayvalue = 0.972

[[record]]
compound = "O=C(O)CCCc1ccccc1"
endpointlabel = "normalized growth"
assayvalue = 0.983

[[record]]
compound = "O=C(/C=C/c1ccc(O)c(O)c1)OCCc1ccccc1"
endpointlabel = "normalized growth"
assayvalue = 0.693

[[record]]
compound = "COc1c(N2CCNC(C)C2)c(F)cc2c(=O)c(C(=O)O)cn(C3CC3)c12 (stereo not drawn)"
endpointlabel = "normalized growth"
assayvalue = 0.979

[[record]]
compound = "C=CCc1ccc(OC)cc1"
endpointlabel = "normalized growth"
assayvalue = 0.995

[[record]]
compound = "O=C(O)/C=C/c1ccc(O)c(O)c1"
endpointlabel = "normalized growth"
assayvalue = 1

[[record]]
compound = "OCC(O)CN1CCN(c2ccccc2)CC1 (stereo not drawn)"
endpointlabel = "normalized growth"
assayvalue = 0.985

[[record]]
compound = "N[C@@H](Cc1ccc(N(CCCl)CCCl)cc1)C(=O)O"
endpointlabel = "normalized growth"
assayvalue = 0.978

[[record]]
compound = "Cc1ncc(CNC(=O)N(CCCl)N=O)c(N)n1"
endpointlabel = "normalized growth"
assayvalue = 1.01

[[record]]
compound = "NCCS(=O)(=O)O"
endpointlabel = "normalized growth"
assayvalue = 0.97

[[record]]
compound = "NCCCS(=O)(=O)O"
endpointlabel = "normalized growth"
assayvalue = 1.03

[[record]]
compound = "C=CCc1ccc(O)c(OC)c1"
endpointlabel = "normalized growth"
assayvalue = 0.992

[[record]]
compound = "CNC(=O)O/N=C(\\C)SC"
endpointlabel = "normalized growth"
assayvalue = 1

